Recorded values, source PubChem BioAssay (NCATS).

- METHOD: qHTS of pediatric cancer cell lines to identify multiple opportunities for drug repurposing: Confirmatory screen for BT-37 cells (AID 1347117);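 also: viability measured after 48 h of compound exposure; nearly all actives have a fitted effect of over 55% in size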
- EXPERIMENTAL CONTEXT: BT-37 pediatric cancer cells, viability
Results filed as inconclusive are left out. Active and inactive are the calls of the source. Calls follow the shape of the dose curve; as a rule, active = well fitted cell-killing curve with a large enough effect; inconclusive = small, poorly fitted or top-dose-only effect; inactive = no such curve, though single readings can be large or run the other way.
Just give me one of these, please: T = active, F = inactive

Prompt: Tell me the assay call for CCCCC(=O)O[C@]1(C(=O)CO)[C@@H](C)C[C@H]2[C@@H]3CCC4=CC(=O)C=C[C@]4(C)[C@@]3(F)[C@@H](O)C[C@@]21C please.
Response: F

Prompt: Tell me the assay call for COc1ccc(Nc2cc(-c3cnc(N)nc3)nc(N3CCOCC3)n2)cn1 please.
Response: T

Prompt: Tell me the assay call for C=CC(=O)Nc1cccc(Nc2nc(NC3CCC(N(C)C)CC3)nc3c2ncn3C(C)C)c1 (stereo not drawn) please.
Response: T

Prompt: Tell me the assay call for Nc1ncn([C@@H]2O[C@H](CO)[C@@H](O)[C@@H]2O)c(=O)n1 please.
Response: T

Prompt: Tell me the assay call for CCC(C=C[C@@H]1OC(=O)C=C[C@H]1C)=C[C@H](C)CC=CC(C)=C[C@@H](C)C(=O)[C@@H](C)[C@H](O)[C@@H](C)CC(C)=CC(=O)O please.
Response: T

Prompt: Tell me the assay call for CN(C)c1ccc(C(=O)NCCCCCCC(=O)NO)cc1 please.
Response: T

Prompt: Tell me the assay call for COc1cc([C@@H]2c3cc4c(cc3[C@H](O)[C@H]3COC(=O)[C@@H]23)OCO4)cc(OC)c1OC please.
Response: T

Prompt: Tell me the assay call for COc1cc2c(cc1OC)[C@@H]1C(=O)c3ccc4c(c3O[C@@H]1CO2)C=CC(C)(C)O4 please.
Response: T

* * *

- METHOD: Quantitative High-Throughput drug screen in 47 multiple myeloma cell lines against the NCATS MIPE library collection: U266_ATCC cell viability assay (AID 1919864); also: nearly all actives have a fitted effect of over 35% in size; also: potency is read from the fitted curve at half-maximal effect
- EXPERIMENTAL CONTEXT: U266 myeloma viability, CellTiter-Glo ATP luminescence, 48 h; series mostly up to 45.8 µM
Results filed as inconclusive are left out. Active and inactive are the calls of the source. The call rests on the fitted dose curve; in most records, active means well fitted cell-killing curve with a large enough effect; inconclusive means small, poorly fitted or top-dose-only effect, or effect the other way; inactive means no such curve, though single readings can be large or run the other way.
METRIC NAME: Potency

O=C(Nc1cc2cc[nH]c2cn1)c1ccccc1 = 11.8 µM (active)
NC(=O)N1CCC(CC(=O)N2CCC([C@H]3c4ncc(Br)cc4CCc4cc(Cl)cc(Br)c43)CC2)CC1 = 18.7 µM (active)
CC(C=CC(=O)NO)=C[C@@H](C)C(=O)c1ccc(N(C)C)cc1 = 0.209 µM (active)
CCCCC(=O)O[C@]1(C(=O)CO)[C@@H](C)C[C@H]2[C@@H]3CCC4=CC(=O)C=C[C@]4(C)[C@@]3(F)[C@@H](O)C[C@@]21C = inactive
COc1cc(O)c2c(c1)C1OC1C[C@H](O)[C@H](O)C(=O)C=CC[C@H](C)OC2=O (some centres undefined) = 4.69 µM (active)
CC(=O)ON=C1C(c2c(O)[nH]c3cc(Br)ccc23)=Nc2ccccc21 = 14.8 µM (active)
CN1CCCN(C(=O)c2cccc(-c3ccc(C=C4C(=O)Nc5ccc(Cl)cc54)o3)c2)CC1 = 18.7 µM (active)
O=C1NCCc2[nH]c(-c3ccncc3)cc21 = 2.64 µM (active)

Next, consider the following compound.
Measured Potency of CCCNS(=O)(=O)Nc1ncnc(OCCOc2ncc(Br)cn2)c1-c1ccc(Br)cc1 : inactive

* * *

- Tested on: MCC-13
- METHOD: qHTS assay to identify novel small-molecules to repurpose for Merkel cell carcinoma treatment (AID 1296009); also: nearly all actives have a fitted effect of over 60% in size
- EXPERIMENTAL CONTEXT: MCC and control cell lines, CellTiter-Glo viability, 72 h; series mostly up to 46 µM
Records with an inconclusive call do not appear. Activity calls are given as the source filed them. The call rests on the fitted dose curve; in most records, active means well fitted inhibition curve with a large enough effect; inconclusive means small, poorly fitted or top-dose-only effect; inactive means flat fitted curve, though single readings scatter.
Just give me one of these, please: yes for active, no for inactive

Some entries whose results are on file:
CC[C@H](CC[C@@H](C)[C@H]1CC[C@H]2[C@@H]3CC=C4C[C@@H](O)CC[C@]4(C)[C@@H]3CC[C@]12C)C(C)C = no
CC(Cc1ccc(O)c(O)c1)(NN)C(=O)O (configuration not stated) = no
CS[C@H]1SC[C@@H]2C(=O)N(C)[C@H](C(C)C)C(=O)OC[C@H](NC(=O)c3cnc4ccccc4n3)C(=O)N[C@H](C)C(=O)N(C)[C@@H]1C(=O)N(C)[C@H](C(C)C)C(=O)OC[C@H](NC(=O)c1cnc3ccccc3n1)C(=O)N[C@H](C)C(=O)N2C = yes
NC(=O)Nc1cc(-c2ccc(CN3CCOCC3)cc2)sc1C(N)=O = no
Nc1nc2c(c(=O)[nH]1)N(C=O)[C@H](CNc1ccc(C(=O)N[C@@H](CCC(=O)O)C(=O)O)cc1)CN2 = no
O=C(NNC(=O)c1ccc(CNS(=O)(=O)c2ccc(F)c(Cl)c2)cc1)c1ccccc1 = no

Prompt: Tell me the assay call for NC1=N[C@H]2[C@H](CS[C@H]2CCCCC(=O)O)N1 please.
Response: no

Prompt: Tell me the assay call for COc1ccc([C@@H]2CNC(=O)C2)cc1OC1CCCC1 please.
Response: no

* * *

- METHOD: qHTS of pediatric cancer cell lines to identify multiple opportunities for drug repurposing: Primary screen for OHS-50 cells (AID 1347103); also: nearly all actives have a fitted effect of over 40% in size
- EXPERIMENTAL CONTEXT: OHS-50 osteosarcoma viability, CellTiter-Glo luminescence, 48 h; series mostly up to 57.3 µM
Results filed as inconclusive are left out. The source made the active and inactive calls. Calls come from the whole dose curve; as a rule, active = well fitted cell-killing curve with a large enough effect; inconclusive = small, poorly fitted or top-dose-only effect; inactive = no such curve, though single readings can be large or run the other way.
Just give me one of these, please: Y (active), N (inactive)

FC(F)c1nc2ccccc2n1-c1nc(N2CCOCC2)nc(N2CCOCC2)n1 = Y
COc1ccc(C=Cc2cc(OC)c(OC)c(OC)c2)cc1NC(=O)[C@H](N)CO = Y
FC(F)(F)c1ccc(Nc2nc3ccc(Oc4ccnc(-c5ncc(C(F)(F)F)[nH]5)c4)cc3[nH]2)cc1 = Y

Prompt: Tell me the assay call for O=S(=O)(O)CCSSCCS(=O)(=O)O please.
Response: N

Prompt: Tell me the assay call for CNC(=O)Nc1ccc(-c2nc(N3CC4CCC(C3)O4)c3cnn(C4CCC5(CC4)OCCO5)c3n2)cc1 please.
Response: Y

* * *

- System: HEK293
- METHOD: Cytotoxic Profiling of Annotated Libraries Using Quantitative High-Throughput Screening (AID 1296008); also: % is scaled to controls: 0 for no effect and ±100 for the full control effect; nearly all actives have a fitted effect of over 60% in size
- EXPERIMENTAL CONTEXT: Five cell lines viability, CellTiter-Glo ATP luminescence, 48-72 h; stronger effect = lower value
Results filed as inconclusive are left out.
METRIC NAME: max response (%)
Quick note: give the figure in %, leave out the unit.

Use the examples below as a reference point.
Cn1cnc2c(F)c(Nc3ccc(Br)cc3F)c(C(=O)NOCCO)cc21 = -7.34
N[C@H]1CN(c2c(F)cc3c(=O)c(C(=O)O)cn(C4C[C@@H]4F)c3c2Cl)CC12CC2 (stereo partly specified) = -9.37
Nc1ccn(C2CO[C@H](CO)O2)c(=O)n1 (stereo partly specified) = -12.3
O=C1NC(O)CCN1[C@@H]1O[C@H](CO)[C@H](O)[C@H]1O (stereo partly specified) = -3.17
O=C(O)C=Cc1ccc(Cn2ccnc2)cc1 = -2.77

Param item: N#CNC(=NCCCCCCOc1ccc(Cl)cc1)Nc1ccncc1 ; param system: HEK293; output max response: -111

Param item: COc1ccc(C(C)=O)c(O)c1 ; param system: HEK293; output max response: 0.614

Param item: C=C1CCC2[C@](C)(CO)C(O)CC[C@]2(C)C1CC=C1C(=O)OCC1O (stereo partly specified) ; param system: HEK293; output max response: -3.28

Param item: CCCCOc1ccc(C(=O)Nc2ccc(F)cc2F)cc1 ; param system: HEK293; output max response: 2.49

* * *

- METHOD: qHTS profiling of the MIPE4 collection as inhibitors of Plasmodium falciparum (HB3) proliferation (AID 743347);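 also: plate controls were DMSO vehicle wells for no effect and artemisinin wells for full effect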
- EXPERIMENTAL CONTEXT: P. falciparum HB3 in erythrocytes, SYBR Green DNA, 72 h; at 28.5 µM (top of the series) unless noted
- Method: Plasmodium falciparum is a virulent malarial parasite that kills 1-2 million people worldwide each year. […] Because mature erythrocytes lack DNA, only Plasmodium-derived DNA is detected. The SYBR Green viability assay was adapted from a method described previously (Plouffe et al., 2008). […] The following morning, fluorescence intensity at 485(14) nm excitation and 535(25) nm emission wavelengths was measured on an EnVision (Perkin Elmer) plate reader. […]
METRIC NAME: growth, % of control (%)
Quick note: give the figure in %, leave out the unit.

Use the examples below as a reference point.
Cc1ncc(-c2ccnc(Nc3ccc(S(C)(=O)=O)cc3)n2)n1C(C)C = 7.75
O=C(C=Cc1ccc(CN(CCO)CCc2c[nH]c3ccccc23)cc1)NO = 2.54
C[C@H](O)[C@@H]1C(=O)N2C(C(=O)O)=C(S[C@@H]3CN[C@H](CNS(N)(=O)=O)C3)[C@@H](C)[C@@H]12 = 87.8
C[C@@H](NCc1cc2ccccc2[nH]1)c1cccc2ccccc12 = 36.4
CC[C@H]1OC(=O)[C@H](C)[C@@H](O[C@H]2C[C@@](C)(OC)[C@@H](O)[C@H](C)O2)[C@H](C)[C@@H](O[C@@H]2O[C@H](C)C[C@H](N(C)C)[C@@H]2O)[C@](C)(OC)C[C@@H](C)C(=O)[C@H](C)[C@@H](O)[C@]1(C)O = 51.5

Measured growth, % of control of C[C@@H](Cc1cc2c(c(C(N)=O)c1)N(CCCO)CC2)NCCOc1ccccc1OCC(F)(F)F : 85.9

Measured growth, % of control of COC[C@H](NC(=O)c1cnc(C)s1)C(=O)N[C@@H](COC)C(=O)N[C@@H](Cc1ccccc1)C(=O)[C@@]1(C)CO1 : 5.53
